Provenance of the data: PubChem BioAssay AID1918938

Tested on: 556581-035-R-J1-PDC complex spheroid viability
Experiment: Anticancer human tumor 556581-035-R-J1-PDC patient-derived ovarian carcinoma cell line growth inhibition; active means viability on the fitted dose curve at most 10% of control; inactive means the rest
Conditions: second compound 10 µM; first compound 0.3 µM
Write down one outcome, taken from yes = active, no = inactive

O=C(C=Cc1cccc(S(=O)(=O)Nc2ccccc2)c1)NO + NC1CCC(NC2CC2c2ccccc2)CC1; no
O=C(C=Cc1cccc(S(=O)(=O)Nc2ccccc2)c1)NO + NC1CC1c1ccc(-c2cccc(O)c2)cc1; no
COc1cc(C2c3cc4c(cc3C(OC3OC5COC(C)OC5C(O)C3O)C3COC(=O)C23)OCO4)cc(OC)c1O (configuration not stated) + NC1CCC(NC2CC2c2ccccc2)CC1; no
CCN(c1cc(-c2ccc(CN3CCOCC3)cc2)cc(C(=O)NCc2c(C)cc(C)[nH]c2=O)c1C)C1CCOCC1 + NC1CCC(NC2CC2c2ccccc2)CC1; no
NS(=O)(=O)OCC1CC(n2ccc3c(NC4CCc5ccccc54)ncnc32)CC1O (configuration not stated) + NC1CC1c1ccc(-c2cccc(O)c2)cc1; no

Check the results log: what was the call for CCN(c1cc(-c2ccc(CN3CCOCC3)cc2)cc(C(=O)NCc2c(C)cc(C)[nH]c2=O)c1C)C1CCOCC1 + NC1CC1c1ccc(-c2cccc(O)c2)cc1 ? no

Answer briefly: the call reported for CCc1c2c(nc3ccc(O)cc13)-c1cc3c(c(=O)n1C2)COC(=O)[C@]3(O)CC + NC1CC1c1ccc(-c2cccc(O)c2)cc1 in this assay. yes

* * *

Tested on: 556581-035-R-J1-PDC complex spheroid viability
Assay: Anticancer human tumor 556581-035-R-J1-PDC cell line growth inhibition;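 further: spheroids exposed to agents for seven days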
Details: curve of first compound; second compound 10 µM
pIC50: −log10 of the molar value.
Below, each entry is listed alongside its reported pIC50.

CCc1c2c(nc3ccc(O)cc13)-c1cc3c(c(=O)n1C2)COC(=O)[C@]3(O)CC + NC1CCC(NC2CC2c2ccccc2)CC1; > 9.02

Form field: pIC50 recorded for Cn1ncnc1C1c2n[nH]c(=O)c3cc(F)cc(c23)NC1c1ccc(F)cc1 (stereo unspecified) + NC1CC1c1ccc(-c2cccc(O)c2)cc1 with 556581-035-R-J1-PDC complex spheroid viability (enter value) < 7.00

pIC50 of Nc1ncn(C2CC(O)C(CO)O2)c(=O)n1 (stereo unspecified) + NC1CCC(NC2CC2c2ccccc2)CC1 on 556581-035-R-J1-PDC complex spheroid viability? < 6.00

Provide value of pIC50 for this record tested with 556581-035-R-J1-PDC complex spheroid viability: COc1cc(Nc2ncc3c(n2)-c2ccc(Cl)cc2C(c2c(F)cccc2OC)=NC3)ccc1C(=O)O + NC1CC1c1ccc(-c2cccc(O)c2)cc1 < 6.00

Value wanted: pIC50 (556581-035-R-J1-PDC complex spheroid viability) of entry O=C(c1cc(Cc2n[nH]c(=O)c3ccccc23)ccc1F)N1CCN(C(=O)C2CC2)CC1 + NC1CCC(NC2CC2c2ccccc2)CC1 < 5.00

# returns recorded pIC50 (system: 556581-035-R-J1-PDC complex spheroid viability) for CC1COCCN1c1cc(C2(S(C)(=N)=O)CC2)nc(-c2ccnc3[nH]ccc23)n1 (stereo unspecified) + NC1CC1c1ccc(-c2cccc(O)c2)cc1 < 5.00

* * *

Tested on: 556581-035-R-J1-PDC complex spheroid viability
Experiment: Anticancer human tumor 556581-035-R-J1-PDC cell line growth inhibition;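 further: spheroids exposed to agents for seven days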
Details: curve of first compound; second compound 10 µM
quantity: pIC50
// scale note: pIC50 = -log10(conc_M); give the bare number

CCN(c1cc(-c2ccc(CN3CCOCC3)cc2)cc(C(=O)NCc2c(C)cc(C)[nH]c2=O)c1C)C1CCOCC1 + NC1CC1c1ccc(-c2cccc(O)c2)cc1; 6.18

Query (molecule): CC1COCCN1c1cc(-c2ccnn2C)c2ccnc(-c3ccn[nH]3)c2n1 (stereo not drawn) + NC1CCC(NC2CC2c2ccccc2)CC1 ; field requested: pIC50 7.92

* * *

Tested on: 556581-035-R-J1-PDC complex spheroid viability
Assay: Anticancer human tumor 556581-035-R-J1-PDC cell line growth inhibition;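 further: spheroids exposed to agents for seven days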
Settings: curve of first compound; second compound 1 µM
pIC50: −log10 of the molar value.
List of pIC50 values.

Answered examples (2):
O=C(c1cc(Cc2n[nH]c(=O)c3ccccc23)ccc1F)N1CCN(C(=O)C2CC2)CC1 + NC1CCC(NC2CC2c2ccccc2)CC1; < 5.00
CC(C)c1c(-c2ccccc2)nc2c(C#N)c[nH]n2c1=O + NC1CC1c1ccc(-c2cccc(O)c2)cc1; < 5.00

Field request: pIC50 | item: CCc1c2c(nc3ccc(O)cc13)-c1cc3c(c(=O)n1C2)COC(=O)[C@]3(O)CC + NC1CC1c1ccc(-c2cccc(O)c2)cc1 > 9.02

* * *

Tested on: 556581-035-R-J1-PDC complex spheroid viability
Experiment: Anticancer human tumor 556581-035-R-J1-PDC cell line growth inhibition;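 further: spheroids exposed to agents for seven days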
Details: curve of first compound; second compound 0.1 µM
Reported IC50 values are given for each entry in this list.

As a guide, the following entries are already answered.
Cn1ncnc1C1c2n[nH]c(=O)c3cc(F)cc(c23)NC1c1ccc(F)cc1 (centres undefined) + NC1CC1c1ccc(-c2cccc(O)c2)cc1; > 100 nM
Nc1ncn(C2CC(O)C(CO)O2)c(=O)n1 (centres undefined) + NC1CC1c1ccc(-c2cccc(O)c2)cc1; > 1000 nM
CCc1c2c(nc3ccc(O)cc13)-c1cc3c(c(=O)n1C2)COC(=O)[C@]3(O)CC + NC1CC1c1ccc(-c2cccc(O)c2)cc1; < 0.949 nM

I'd like to know its IC50. The molecule in question is Nc1ncn(C2CC(O)C(CO)O2)c(=O)n1 (centres undefined) + NC1CCC(NC2CC2c2ccccc2)CC1 > 1000 nM

Reported IC50 for NS(=O)(=O)OCC1CC(n2ccc3c(NC4CCc5ccccc54)ncnc32)CC1O (centres undefined) + NC1CCC(NC2CC2c2ccccc2)CC1 : what is it? > 3000 nM

# IC50 lookup, item Cn1ncnc1C1c2n[nH]c(=O)c3cc(F)cc(c23)NC1c1ccc(F)cc1 (centres undefined) + NC1CCC(NC2CC2c2ccccc2)CC1 > 100 nM

Can you share its IC50? I mean this molecule: CC(C)c1c(-c2ccccc2)nc2c(C#N)c[nH]n2c1=O + NC1CC1c1ccc(-c2cccc(O)c2)cc1 > 10000 nM

# input molecule: CCc1c2c(nc3ccc(O)cc13)-c1cc3c(c(=O)n1C2)COC(=O)[C@]3(O)CC + NC1CCC(NC2CC2c2ccccc2)CC1 ; wanted: its IC50 < 0.949 nM

So what's the measured IC50 for this one? CC(C)CC(NC(=O)C(Cc1ccccc1)NC(=O)c1cnccn1)B(O)O (centres undefined) + NC1CCC(NC2CC2c2ccccc2)CC1 < 0.316 nM

* * *

System: 556581-035-R-J1-PDC complex spheroid viability
Assay: Anticancer human tumor 556581-035-R-J1-PDC cell line growth inhibition;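 further: spheroids exposed to agents for seven days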
Conditions: curve of first compound; second compound 1 µM
Excerpt: Multicellular complex tumor spheroid response to LSD1 Inhibitor Iadademstat in combination with a variety of drugs and investigational agents in selected tumor cell lines The current study was undertaken to assess response to LSD1 inhibitors in combination with standard-of-care drugs and investigational agents in solid tumor complex spheroid models as well as in the K-562 leukemia. […] Compounds. […] If the clinical Cmax for an agent had not been determined, the highest concentration tested was 10 microM. […]
quantity: log10 IC50 (log10 of the value in µM)
Recall that a logarithmic scale is used here: each number is log10 of IC50 in µM.

Worked set:
Nc1ccn(C2OC(CO)C(O)C2(F)F)c(=O)n1 (stereo not drawn) + NC1CC1c1ccc(-c2cccc(O)c2)cc1; -2.71
Nc1ccn(C2OC(CO)C(O)C2(F)F)c(=O)n1 (stereo not drawn) + NC1CCC(NC2CC2c2ccccc2)CC1; -2.63
CCN(c1cc(-c2ccc(CN3CCOCC3)cc2)cc(C(=O)NCc2c(C)cc(C)[nH]c2=O)c1C)C1CCOCC1 + NC1CC1c1ccc(-c2cccc(O)c2)cc1; -0.20
COc1cc(Nc2ncc3c(n2)-c2ccc(Cl)cc2C(c2c(F)cccc2OC)=NC3)ccc1C(=O)O + NC1CCC(NC2CC2c2ccccc2)CC1; -0.60

Could you share which log10 IC50 value was measured for COc1cc(C2c3cc4c(cc3C(OC3OC5COC(C)OC5C(O)C3O)C3COC(=O)C23)OCO4)cc(OC)c1O (stereo not drawn) + NC1CC1c1ccc(-c2cccc(O)c2)cc1 ? -0.73

For COc1cc(Nc2ncc3c(n2)-c2ccc(Cl)cc2C(c2c(F)cccc2OC)=NC3)ccc1C(=O)O + NC1CC1c1ccc(-c2cccc(O)c2)cc1 , what is its reported log10 IC50? -1.30

Give the measured log10 IC50 of CC1COCCN1c1cc(C2(S(C)(=N)=O)CC2)nc(-c2ccnc3[nH]ccc23)n1 (stereo not drawn) + NC1CC1c1ccc(-c2cccc(O)c2)cc1 . 0.73

Which measured log10 IC50 value corresponds to CCN(c1cc(-c2ccc(CN3CCOCC3)cc2)cc(C(=O)NCc2c(C)cc(C)[nH]c2=O)c1C)C1CCOCC1 + NC1CCC(NC2CC2c2ccccc2)CC1 ? 0.36
